Target: T1, human GPC3 on cells (human, UniProt P51654 25-554)
T1 construct: whole, on cells; over-expressed on CHOK1 cells or endogenous on HEPG2, Hep3B and Huh-7 hepatocellular carcinoma cells; the cell line is named under assay; also called GPC3-CHOK1 cells; human GPC3 over-expressed CHOK1 cells
Assay: FACS, Hep3B cells
Readout: EC50 (µg/mL)
Answer format: numeric, µg/mL implied, no suffix.

# Binder, EC50, µg/mL
measured = [
    ("52H5D3B8-6#-VH4+VL1 (antibody, V domains shown, humanized) VH: QVQLVQSGAEVKKPGASVKVSCKALGYTFTDYEMHWVKQAPGQGLEWIGAIHPGSGGTAYNQKFKGRATMTADKFTSTVYMELSSLRSEDTAVYYCTRYYSYAYWGQGTLVTVSS VL: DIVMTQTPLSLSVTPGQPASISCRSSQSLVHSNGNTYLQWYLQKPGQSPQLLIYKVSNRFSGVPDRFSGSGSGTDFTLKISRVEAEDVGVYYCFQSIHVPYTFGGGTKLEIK", 0.0565),
]

# input Tell me the measured EC50 of 52H5D3B8-6#-VH3+VL3 (antibody, V domains shown, humanized) VH: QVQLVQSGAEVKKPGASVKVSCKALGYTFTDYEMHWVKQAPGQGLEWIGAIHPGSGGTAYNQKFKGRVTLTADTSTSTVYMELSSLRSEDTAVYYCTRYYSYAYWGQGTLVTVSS VL: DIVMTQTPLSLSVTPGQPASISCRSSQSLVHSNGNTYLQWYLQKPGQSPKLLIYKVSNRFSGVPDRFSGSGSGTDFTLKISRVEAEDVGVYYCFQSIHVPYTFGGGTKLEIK , please.
# output 0.0682
